Source listed as patent US20240109912A1.

# system-name: CDK7/cyclinH/MAT1 trimeric complex (Homo sapiens (Human), UniProt P50613)
# Sequence (P50613 whole entry): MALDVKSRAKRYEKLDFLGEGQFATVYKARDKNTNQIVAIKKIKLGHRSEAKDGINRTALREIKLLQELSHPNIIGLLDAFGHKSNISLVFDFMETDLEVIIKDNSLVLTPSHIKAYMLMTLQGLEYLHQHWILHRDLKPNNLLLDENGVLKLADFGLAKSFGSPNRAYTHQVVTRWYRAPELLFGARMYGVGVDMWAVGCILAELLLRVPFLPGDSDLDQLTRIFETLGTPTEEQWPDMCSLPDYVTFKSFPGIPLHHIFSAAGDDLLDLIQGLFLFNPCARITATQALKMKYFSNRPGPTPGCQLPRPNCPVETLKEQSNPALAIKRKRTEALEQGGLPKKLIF
# Sequence (P51946 whole entry partner): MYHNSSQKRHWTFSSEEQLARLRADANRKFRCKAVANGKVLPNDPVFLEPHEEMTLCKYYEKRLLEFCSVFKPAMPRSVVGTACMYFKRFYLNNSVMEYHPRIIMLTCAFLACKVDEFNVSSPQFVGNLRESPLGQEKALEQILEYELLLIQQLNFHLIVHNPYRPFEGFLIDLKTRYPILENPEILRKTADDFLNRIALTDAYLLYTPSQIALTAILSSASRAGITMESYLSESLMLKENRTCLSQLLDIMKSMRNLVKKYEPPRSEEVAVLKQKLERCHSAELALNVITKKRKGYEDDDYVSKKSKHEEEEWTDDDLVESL
# Sequence (P51948 whole entry partner): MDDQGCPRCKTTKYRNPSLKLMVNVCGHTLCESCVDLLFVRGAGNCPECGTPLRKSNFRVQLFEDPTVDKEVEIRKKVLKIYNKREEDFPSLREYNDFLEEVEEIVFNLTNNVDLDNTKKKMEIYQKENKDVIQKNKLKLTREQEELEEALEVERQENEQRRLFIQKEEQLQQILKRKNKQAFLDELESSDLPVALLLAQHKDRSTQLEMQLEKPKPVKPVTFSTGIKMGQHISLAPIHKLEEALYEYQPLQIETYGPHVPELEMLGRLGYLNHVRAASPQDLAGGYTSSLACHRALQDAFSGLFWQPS
# assay-remarks: In vitro CDK7 assay, potency of irreversible covalent inhibitors (kinact/KI)
# details: 20 nM enz.
compounds and their reported CDK7 (20 nM enz.) (kinact, s^−1)
Numbers only here, please. The scale is s⁻¹.

compound: C=CC(=O)N1CC(N2CCC(c3cc4c(cn3)O[C@H](C)c3c(ncnc3N3CCOCC3)N4)CC2)C1 (single isomer, unassigned) [compound 83]
unit-of-measurement: s⁻¹
CDK7 (20 nM enz.) (kinact, s^−1): 2.22e-05
//
compound: C=CC(=O)N1CC[C@@H](N2CCC(c3cc(C)c4c(c3)Nc3ncnc(N5CCS(=O)(=O)CC5)c3CO4)CC2)C1 (single isomer, unassigned)
unit-of-measurement: s⁻¹
CDK7 (20 nM enz.) (kinact, s^−1): 8.94e-05
//
compound: C=CC(=O)N1CC(N2CCC(c3cc(C)c4c(c3)Nc3ncnc(N5CCS(=O)(=O)CC5)c3CO4)CC2)C1
unit-of-measurement: s⁻¹
CDK7 (20 nM enz.) (kinact, s^−1): 8.74e-05
//
compound: C=CC(=O)N1CC[C@@H](N2CC(c3cc(C)c4c(c3)Nc3ncnc(N5CCS(=O)(=O)CC5)c3[C@H](C)O4)C2)C1 (single isomer, unassigned)
unit-of-measurement: s⁻¹
CDK7 (20 nM enz.) (kinact, s^−1): 5.02e-05
//
compound: C=CC(=O)N1CC(N2CCC(c3cc4c(cn3)O[C@H](C)c3c(ncnc3N3CCOCC3)N4)CC2)C1 (single isomer, unassigned) [compound 60]
unit-of-measurement: s⁻¹
CDK7 (20 nM enz.) (kinact, s^−1): 5.21e-05

Now let's try a different one.
Check the records and state CDK7 (20 nM enz.) (kinact, s^−1) for CC#CC(=O)N1CC(N2CCC(c3cc4c(c(C)n3)O[C@H](C)c3c(ncnc3N3CCS(=O)(=O)CC3)N4)CC2)C1 (single isomer, unassigned)
6.2e-05

###

# system-name: CDK7/cyclinH/MAT1 trimeric complex (Homo sapiens (Human))
# assay-remarks: In vitro CDK7 assay, potency of irreversible covalent inhibitors (kinact/KI)
# details: CDK7 (20 nM enz.) (KI, μM), 20 nM enz.
measured-metric: Ki
Mention the unit after the number when you answer.

Check the records and state Ki for C=CC(=O)N1CC(N2CC[C@H](c3cc(C)c4c(c3)Nc3ncnc(N5CCOCC5)c3CO4)C2)C1 [compound 23]
0.255 µM

Check the records and state Ki for C=CC(=O)N1CCC(N2CC[C@H](c3cc(C)c4c(c3)Nc3ncnc(N5CCOCC5)c3CO4)C2)CC1 [compound 24]
0.533 µM

Check the records and state Ki for C=CC(=O)N1CC[C@H](N2CC(c3cc4c(c(C)n3)OCc3c(ncnc3N3CCS(=O)(=O)CC3)N4)C2)C1 (single isomer, unassigned) [compound 78]
0.168 µM

Check the records and state Ki for CC#CC(=O)N1CC(C)(N2CCC(c3cc(C)c4c(c3)Nc3ncnc(N5CCS(=O)(=O)CC5)c3[C@@H](C)O4)CC2)C1 [compound 144]
0.00389 µM

Check the records and state Ki for C=CC(=O)N1CCC(N2CCC(c3cc(C)c4c(c3)Nc3ncnc(N5CCOCC5)c3CO4)CC2)C1 (stereo not drawn) [compound 11]
0.0411 µM

Check the records and state Ki for C=CC(=O)N1CC[C@@H](N2CC(c3cc(C)c4c(c3)Nc3ncnc(N5CCS(=O)(=O)CC5)c3[C@@H](C)O4)C2)C1 (single isomer, unassigned) [compound 122]
0.0292 µM

###

# Tested on: RNA polymerase II Serine 5 phosphorylation in A549 cells overexpressing CDK7 mutant (C312S)
# assay-remarks: Imaging-based cellular RNA PolII Ser5 phosphorylation assay in A549 cells overexpressing CDK7-mutant (C312S)
# Type: cell-based, human
# details: Homo sapiens, A549, A549 cells overexpressing CDK7 mutant (C312S); read-out: CDK7_ A549 mutant hCDK7(pIC50) (converted)
measured-metric: IC50

Check the records and state IC50 for C=CC(=O)N1CC(N2CCC(c3cc4c(c(C)n3)O[C@@H](C)c3c(ncnc3N3CCS(=O)(=O)CC3)N4)CC2)C1 (single isomer, unassigned)
> 10 µM

Check the records and state IC50 for C=CC(=O)N1CC(N2CCC(c3cc(C)c4c(c3)Nc3ncnc(N5CCS(=O)(=O)CC5)c3[C@@H](C)O4)CC2)C1 (single isomer, unassigned)
> 10 µM

Check the records and state IC50 for CC#CC(=O)N1CCC(C)(N2CC(c3cc(C)c4c(c3)Nc3ncnc(N5CCS(=O)(=O)CC5)c3[C@@H](C)O4)C2)C1 (mixture of isomers)
> 10 µM

Check the records and state IC50 for C=CC(=O)N1CCC(N2CCC(c3cc(C)c4c(c3)Nc3ncnc(N5CCOCC5)c3CO4)CC2)C1 (stereo not shown)
8.91 µM

###

compounds and their reported kinact
# system-name: CDK7/cyclinH/MAT1 trimeric complex (Homo sapiens (Human), UniProt P50613)
# assay-remarks: In vitro CDK7 assay, potency of irreversible covalent inhibitors (kinact/KI)
# details: read-out: CDK7 (20 nM enz.) (kinact, s^−1), 20 nM enz.
Numbers only here, please. The scale is s⁻¹.

compound: C#Cc1cc(C2CCN(C3CN(C(=O)C=C)C3)CC2)cc2c1O[C@H](C)c1c(ncnc1N1CCS(=O)(=O)CC1)N2 (single isomer, unassigned) [compound 189]
recorded-result: 8.1e-05
--
compound: CC#CC(=O)N1CC(N2CCC(c3cc(C)c4c(c3)Nc3ncnc(N5CCS(=O)(=O)CC5)c3[C@@H](C)O4)CC2)C1 [compound 148]
recorded-result: 4.04e-05

Now let's try a different one.
Check the records and state kinact for C=CC(=O)N1CC[C@@H](N2CCC(c3cc(F)c4c(c3)Nc3ncnc(N5CCOCC5)c3CO4)CC2)C1 (single isomer, unassigned) [compound 51]
8.79e-05

###

# system-name: CDK7/cyclinH/MAT1 trimeric complex (Homo sapiens (Human), UniProt P50613)
# assay-remarks: In vitro CDK7 assay, potency of irreversible covalent inhibitors (kinact/KI)
# details: read-out: CDK7 (20 nM enz.) (kinact, s^−1), 20 nM enz.
compounds and their reported kinact
Numbers only here, please. The scale is s⁻¹.

compound: C=CC(=O)N1CCC(N2CC(c3cc(C)c4c(c3)Nc3ncnc(N5CCOCC5)c3CO4)C2)C(F)C1 (stereo not shown)
kinact (s⁻¹): 8.88e-05

compound: C=CC(=O)N1CCC(N2CCC(c3cc4c(c(C)n3)OCc3c(ncnc3N3CCS(=O)(=O)CC3)N4)CC2)CC1
kinact (s⁻¹): 5.06e-05

compound: C=CC(=O)N1CC(N2CCC(c3cc(C)c4c(c3)Nc3ncnc(-c5cncc(OCC)c5)c3CO4)CC2)C1
kinact (s⁻¹): 4.27e-05

compound: C=CC(=O)N1CC[C@H](N2CC(c3cc(C)c4c(c3)Nc3ncnc(N5CCS(=O)(=O)CC5)c3[C@H](C)O4)C2)C1 (single isomer, unassigned)
kinact (s⁻¹): 4.57e-05

compound: C=CC(=O)N1CCC(N2CCN(c3cc(C)c4c(c3)Nc3ncnc(N5CCS(=O)(=O)CC5)c3CO4)CC2)CC1
kinact (s⁻¹): 5.45e-05

compound: C=CC(=O)N1CCC(N2CC[C@H](c3cc(C)c4c(c3)Nc3ncnc(N5CCOCC5)c3CO4)C2)CC1
kinact (s⁻¹): 4.78e-05

Now let's try a different one.
Check the records and state kinact for `C=CC(=O)N1CCC(N2CC(c3cc(C)c4c(c3)Nc3ncnc(N5CCS(=O)(=O)CC5)c3CO4)C2)CC1`
4.3e-05

###

# system-name: CDK7/cyclinH/MAT1 trimeric complex (Homo sapiens (Human), UniProt P50613)
# assay-remarks: In vitro CDK7 assay, potency of irreversible covalent inhibitors (kinact/KI)
# details: read-out: CDK7 (20 nM enz.) (kinact, s^−1), 20 nM enz.
measured-metric: kinact (s⁻¹)
Numbers only here, please. The scale is s⁻¹.

compound: CC#CC(=O)N1CCC(N2CCN(c3cc(C)c4c(c3)Nc3ncnc(N5CCS(=O)(=O)CC5)c3CO4)CC2)CC1
measured-metric: kinact
recorded-result: 5.36e-05
--
compound: C=CC(=O)N1CC(N2CCC(c3cc(F)c4c(c3)Nc3ncnc(-c5cnn(C)c5)c3CO4)CC2)C1
measured-metric: kinact
recorded-result: 5.42e-05
--
compound: C=CC(=O)N1CC[C@H](N2CC(c3cc(C)c4c(c3)Nc3ncnc(N5CCOCC5)c3CO4)C2)C1
measured-metric: kinact
recorded-result: 8.2e-05

Now let's try a different one.
Check the records and state kinact for C=CC(=O)N1CCC(N2CC(c3cc(C)c4c(c3)Nc3ncnc(N5CCOCC5)c3CO4)C2)C1 (stereo not shown)
5.05e-05

###

# system-name: CDK7/cyclinH/MAT1 trimeric complex (Homo sapiens (Human))
# assay-remarks: In vitro CDK7 assay, potency of irreversible covalent inhibitors (kinact/KI)
# details: read-out: CDK7 (20 nM enz.) (kinact, s^−1), 20 nM enz.
measured-metric: kinact (s⁻¹)
Numbers only here, please. The scale is s⁻¹.

query-smiles: C=CC(=O)N1CC(N2CCN(c3cc4c(cn3)OCc3c(ncnc3N3CCOCC3)N4)CC2)C1
kinact, s⁻¹: 7.12e-05
--
query-smiles: C=CC(=O)N1CC(N2CCC(c3cc(C#N)c4c(c3)Nc3ncnc(-c5cnn(C)c5)c3CO4)CC2)C1
kinact, s⁻¹: 5.42e-05
--
query-smiles: C=CC(=O)N1CC(N2CCC(c3cc4c(cn3)OCc3c(ncnc3N3CCOCC3)N4)CC2)C1
kinact, s⁻¹: 5.9e-05

Check the records and state kinact for `C=CC(=O)N1CC[C@H](N2CCC(c3cc(C)c4c(c3)Nc3ncnc(N5CCOCC5)c3CO4)CC2)C1`
7.04e-05

Check the records and state kinact for `C=CC(=O)N1CCC(N2CC[C@@H](c3cc(C)c4c(c3)Nc3ncnc(N5CCOCC5)c3CO4)C2)CC1`
6.34e-05

Check the records and state kinact for `C=CC(=O)N1CC(N2CCC(c3cc4c(c(C)n3)OCc3c(ncnc3N3CCS(=O)(=O)CC3)N4)CC2)C1`
5.57e-05
